The following ranges of flash point define the classes used here: LOW = under 10 °C, MEDIUM = from 10 °C up to 30 °C, HIGH = 30 °C and over

compound | classification
CCC(C)C(C)CC(C)C (centres undefined) [2,4,5-Trimethylheptane] | HIGH
CCCC(CC)C(C)(C)C (centres undefined) [3-Ethyl-2,2-dimethylhexane] | HIGH

Band for CCC(C)C(C)C(C)C (centres undefined) [2,3,4-Trimethylhexane] ?
MEDIUM

Please indicate the class for CCCC(C)C(C)(C)C (centres undefined) [2,2,3-Trimethylhexane] based on its flash point.
MEDIUM

---

Labels assigned by flash point range: low group: < 50 °C; middle group: ≥ 50 °C and < 100 °C; high group: ≥ 100 °C

Sample answers from the record:
molecule | classification
CC(C)CC(C)(C)C | low group
C[Si](C)(C)Cl | low group
N#CN [cyanamide] | high group

Which class holds "COC(F)(F)C(Cl)Cl" ?
middle group

Sort into band: "C=CCOCC=C"
low group

Lab note: sort "O=Cc1ccccc1Cl" into the matching flash point band.
middle group

Record "C=COCC(C)C" — which class?
low group

Hi, small favor: classify "CC(C)CCCCCO" by its flash point when you get a moment.
middle group

Please indicate the class for "ClC=Cc1ccccc1" based on its flash point.
middle group

Which flash point band matches "CC1=C(C(=O)Nc2ccccc2)S(=O)(=O)CCO1" ?
high group

Quick check: band for CCC(=O)OC [methyl propanoate]
low group

Which flash point band matches CC1(C)[C@@H]2CC[C@@]1(C)C(=O)C2 [(1R,4R)-1,7,7-trimethylbicyclo[2.2.1]heptan-2-one] ?
low group

Bin this entry: "COCCO"
low group

---

Response key: Criterion met means flash point >= 10 °C; Criterion not met means flash point < 10 °C.

Answered cases to consult:
molecule | classification
CO[Si](OC)(OC)OC [Tetramethoxysilane] | Criterion met
CC[Si](C)(C)Cl [ETHYLDIMETHYLCHLOROSILANE] | Criterion not met
F[Si](F)(F)c1ccccc1 [Phenyl trifluorosilane] | Criterion not met
C[Si]1(C)O[Si](C)(C)O[Si](C)(C)O[Si](C)(C)O[Si](C)(C)O1 [Decamethylcyclopentasiloxane] | Criterion met

flash point >= 10 °C for CC[Si](OC(C)=O)(OC(C)=O)OC(C)=O [Ethyltriacetoxysilane] ?
Criterion met

Is the recorded value of flash point equal to or greater than 10 °C for this molecule? CCC[Si](C)(Cl)Cl [n-Propylmethyldichlorosilane]
Criterion met

Evaluate CCC[Si](O[SiH](C)C)(O[SiH](C)C)O[SiH](C)C [Propyltris(dimethylsiloxy)silane] : flash point at minimum 10 °C?
Criterion met

Hello, I need to know if CO[Si](C)(OC)OC [Methyltrimethoxysilane] has measured flash point not below 10 °C. Thanks!
Criterion met

Please indicate if the recorded flash point for C=C[Si](C)(C)C=C [Divinyldimethylsilane] meets or exceeds 10 °C.
Criterion not met

State whether the measured flash point reaches 10 °C, counting equality as reaching it, for CCO[Si](C)(C)C [Ethoxytrimethylsilane]
Criterion not met

---

Collected flash point values appear next to each entry.
Entry rule: numbers only, all in °C.

Guide cases for flash point, answers given:
compound | recordedMeasurement
O=[N+]([O-])c1ccc(Cl)cc1 | 110.00
OCCN(CCO)CCO [2-[bis(2-hydroxyethyl)amino]ethanol] | 185.00
C1CCC2CCCCC2C1 (stereo not given) [1,2,3,4,4a,5,6,7,8,8a-decahydronaphthalene] | 57.00
CCCCBr | 18.00
CCCCCCOC(=O)CCCCC(=O)OCCCCCC [dihexyl hexanedioate] | 163.00

Request the reported flash point associated with CCOS(C)(=O)=O [ethyl methanesulfonate]
100.00

So what's the measured flash point for this one? CCCCC(CC)COC(=O)c1ccc(C(=O)OCC(CC)CCCC)cc1 (stereo not given) [bis(2-ethylhexyl) benzene-1,4-dicarboxylate]
238.00

---

Below, each of the compounds is paired with its reported flash point value.
Could you give me the number in °C? Just the number is fine.

The cases that follow already have their flash point on record.
compound | unitDescriptor | flash point
Cc1ccncc1 [4-methylpyridine] | °C | 37
COC(=O)OC [dimethyl carbonate] | °C | 18
CCC(C)=O | °C | -9
C=C(C)C | °C | -76
C=CC(=C)C | °C | -48

// returns reported flash point for input "Cc1cccc(Cl)c1"
50

Quick one: flash point of "Cc1ccccn1" ?
28

Reported flash point, compound CC(CCO)CC(C)(C)C (stereo not drawn) : ____
79

---

In this section we review reported flash point values for a set of molecules.
Supply the numeric figure in °C, leaving out any unit text.

molecule | flash point (°C)
Cl[Si](Cl)(Cl)C1CCCCC1 | 91.00

Could you tell me which flash point is on file for "O=C1OCCO1" ?
143.00

What value of flash point has been recorded for this entry: ClCC1CO1 (configuration not stated)
34.00

Entry "[Ni+2].c1cc[cH-]c1.c1cc[cH-]c1" : reported flash point = ?
4.00

---

endpoint: flash point (°C)
// return numeric value only (unit: °C, not printed)

Worked cases, answers included:
compoundStructureString | unitDescriptor | flash point
ClC[Si](Cl)(Cl)Cl | °C | 69.00
C[Si](C)(C)[Si](C)(C)C | °C | -1.00
Cl[Si](Cl)(c1ccccc1)c1ccccc1 | °C | 142.00
C[Si](C)(C)C1C=CC=C1 | °C | 29.00
C[SiH](C)O[Si](C)(C)C | °C | -19.00

Quick one: flash point for "CC(C)(C)[Si](Cl)(Cl)Cl" ?
21.00

Name the reported flash point value associated with the molecule "CCCO[Si](OCCC)(OCCC)OCCC"
95.00

Find the recorded flash point belonging to "CC(C)[SiH](C(C)C)C(C)C" and report it.
37.00

Form field: reported flash point of "CC(C)(C)[Si](C)(Cl)C(C)(C)C"
69.00

Using the record for "C[Si](Cl)(Cl)C(Cl)Cl" , report its flash point.
28.00

---

endpoint: flash point (°C)
Number in °C, nothing else.

Some compounds with known flash point results, for comparison:
compound | unitDescriptor | flash point
c1cc[nH]c1 | °C | 33
CC(C)(C)OOC(C)(C)C [di-tert-butyl peroxide] | °C | 12
C1=CCC=C1 | °C | 25
CC(O)CN (stereo not drawn) | °C | 77
CCCBr | °C | 21

Look up flash point: "CC1=CCCCC1"
-3

Any idea what its flash point is? The compound is "Brc1ccc(-c2ccccc2)cc1"
144

---

In this section we review reported flash point values for a set of compounds.
Report as a plain number; the unit °C is understood.

compound | endpoint | unitDescriptor | recordedMeasurement
CCCc1cccc(C)c1C [1,2-dimethyl-3-propylbenzene] | flash point | °C | 72
CC(C)c1ccccc1 [cumene] | flash point | °C | 31.1
CCc1cc(C)cc(CC)c1 [1,3-diethyl-5-methylbenzene] | flash point | °C | 70
CCc1ccccc1CC [o -diethylbenzene] | flash point | °C | 55.1

Look up flash point for this compound: Cc1cccc(C(C)(C)C)c1 [1-tert -butyl-3-methylbenzene]
60.6

Reported flash point for CC(C)CCc1ccccc1 [isopentylbenzene] : what is it?
62.1

Request the reported flash point associated with CC(C)c1cccc(C(C)C)c1 [1,3-diisopropylbenzene]
76.8

Which value of flash point has been reported for CCC(C)c1ccc(C)cc1 (configuration not stated) [1-sec -butyl-4-methylbenzene] in the records?
65

Recorded flash point of CCC(C)c1ccccc1 (configuration not stated) [sec -butylbenzene] , please.
52

Bench note: what flash point did CCc1ccccc1C [o -ethyltoluene] show?
39.1

---

Please enter label 1 where flash point is greater than or equal to 80 °C, and label 0 where it is lower.

// known answers, use as guide
compound | classification
COCCOCCO[Si](CCCN)(OCCOCCOC)OCCOCCOC [3-AMINOPROPYLTRIS(METHOXYETHOXYETHOXY)SILANE] | label 0
C=CCNCCC[Si](OC)(OC)OC [3-(N-ALLYLAMINO)PROPYLTRIMETHOXYSILANE] | label 1
COCN(Cc1ccccc1)C[Si](C)(C)C [N-BENZYL-N-METHOXYMETHYL-N-(TRIMETHYLSILYLMETHYL)AMINE] | label 0
C=CC[Si](Cl)(Cl)CCCCl [ALLYL(3-CHLOROPROPYL)DICHLOROSILANE] | label 0
CCO[Si](CCCN)(OCC)OCC [3-AMINOPROPYLTRIETHOXYSILANE] | label 1

Form field: flash point at least 80 °C? Entry: CCO[Si](CCCNCCN)(OCC)OCC [N-(2-AMINOETHYL)-3-AMINOPROPYLTRIETHOXYSILANE]
label 1

Hello, I need to know if CO[Si](CCCNCCN)(OC)OC [N-(2-AMINOETHYL)-3-AMINOPROPYLTRIMETHOXYSILANE] has measured flash point not below 80 °C. Thanks!
label 1

Recorded values, source a flash point compilation (Sun et al. 2020).
